B1: FERM and PDZ domain-containing protein 4, residues 75 to 154; numbered along this chain, Q14CM0 (parent)
chain: APRKVEMRRDPVLGFGFVAGSEKPVVVRSVTPGGPSEGKLIPGDQIVMINDEPVSAAPRERVIDLVRSCKESILLTVIQP

variants of: B1; experiment: abundance fitness (aPCA) (normalised: wild type 0, dead -1); higher = more abundant; growth selection in yeast, the domain comes from the species named; details: Homo sapiens
ASSAY METRIC: abundance fitness
# print the numeric value only

Use these answered entries as a reference point.
{"columns": ["MUTATION NAME", "ASSAY METRIC", "RESULT NUMBER"],
 "data": [
  ["V12D", "abundance fitness", 0.004],
  ["V30A", "abundance fitness", -0.499],
  ["V18Y", "abundance fitness", -0.078],
  ["T76H", "abundance fitness", -0.05],
  ["L74A", "abundance fitness", -0.006],
  ["L75N", "abundance fitness", -0.773],
  ["N50V", "abundance fitness", -0.695],
  ["I78W", "abundance fitness", -0.063],
  ["A1F", "abundance fitness", -0.199],
  ["P11M", "abundance fitness", -0.148]
]}

The variant listed as `D10V` has a reported abundance fitness of -0.214

Per the records, this variant ( `G34Y` ) has abundance fitness equal to -0.867

Quick note, abundance fitness for `V62W` landed at -0.4

The measured abundance fitness associated with `K70G` reads -0.093

Recorded abundance fitness (variant `I73C` ): -0.045

Recorded abundance fitness (variant `V47D` ): -0.084

The value of abundance fitness measured for the variant `G43F` turned out to be -0.256

Form: variant = `P53A` ; abundance fitness = -0.037
